- Tested target: African green monkey C5 (African green monkey)
- Protocol details: cell-based or functional assay
Quantity kind: AGM CP % Max Inhibition, hemolysis assay, 5% serum (%)
Number in %, nothing else.

AGM CP % Max Inhibition, hemolysis assay, 5% serum reported for this binder H4H12163P (antibody, human IgG4, V domains shown, H4H: human IgG4 Fc with S108P hinge mutation) VH: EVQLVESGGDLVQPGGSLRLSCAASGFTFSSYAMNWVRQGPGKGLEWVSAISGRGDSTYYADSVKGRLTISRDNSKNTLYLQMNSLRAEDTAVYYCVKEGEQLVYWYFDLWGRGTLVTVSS VL: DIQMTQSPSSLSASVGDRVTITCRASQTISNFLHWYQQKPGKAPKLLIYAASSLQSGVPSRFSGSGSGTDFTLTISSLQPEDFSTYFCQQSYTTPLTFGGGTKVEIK : 83.2

AGM CP % Max Inhibition, hemolysis assay, 5% serum reported for this binder H4H12168P (antibody, human IgG4, V domains shown, H4H: human IgG4 Fc with S108P hinge mutation) VH: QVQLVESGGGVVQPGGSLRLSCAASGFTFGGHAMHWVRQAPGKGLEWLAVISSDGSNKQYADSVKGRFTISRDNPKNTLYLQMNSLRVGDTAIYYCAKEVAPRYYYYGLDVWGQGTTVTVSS VL: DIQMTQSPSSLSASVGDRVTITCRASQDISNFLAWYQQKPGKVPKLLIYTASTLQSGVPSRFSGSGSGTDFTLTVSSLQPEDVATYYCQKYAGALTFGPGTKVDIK : 90.8

AGM CP % Max Inhibition, hemolysis assay, 5% serum reported for this binder H4H12164P (antibody, human IgG4, V domains shown, H4H: human IgG4 Fc with S108P hinge mutation) VH: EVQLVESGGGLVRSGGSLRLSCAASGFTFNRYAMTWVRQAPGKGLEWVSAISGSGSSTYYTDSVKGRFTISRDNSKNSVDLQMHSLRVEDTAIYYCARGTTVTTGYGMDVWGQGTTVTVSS VL: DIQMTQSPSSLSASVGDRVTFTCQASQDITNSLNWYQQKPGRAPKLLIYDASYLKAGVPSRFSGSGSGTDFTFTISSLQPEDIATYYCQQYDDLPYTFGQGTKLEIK : 85.8
